meta.source: patent US10941399B2

SYSTEM: DNMT1 (Homo sapiens, UniProt P26358)
Sequence (P26358 whole entry): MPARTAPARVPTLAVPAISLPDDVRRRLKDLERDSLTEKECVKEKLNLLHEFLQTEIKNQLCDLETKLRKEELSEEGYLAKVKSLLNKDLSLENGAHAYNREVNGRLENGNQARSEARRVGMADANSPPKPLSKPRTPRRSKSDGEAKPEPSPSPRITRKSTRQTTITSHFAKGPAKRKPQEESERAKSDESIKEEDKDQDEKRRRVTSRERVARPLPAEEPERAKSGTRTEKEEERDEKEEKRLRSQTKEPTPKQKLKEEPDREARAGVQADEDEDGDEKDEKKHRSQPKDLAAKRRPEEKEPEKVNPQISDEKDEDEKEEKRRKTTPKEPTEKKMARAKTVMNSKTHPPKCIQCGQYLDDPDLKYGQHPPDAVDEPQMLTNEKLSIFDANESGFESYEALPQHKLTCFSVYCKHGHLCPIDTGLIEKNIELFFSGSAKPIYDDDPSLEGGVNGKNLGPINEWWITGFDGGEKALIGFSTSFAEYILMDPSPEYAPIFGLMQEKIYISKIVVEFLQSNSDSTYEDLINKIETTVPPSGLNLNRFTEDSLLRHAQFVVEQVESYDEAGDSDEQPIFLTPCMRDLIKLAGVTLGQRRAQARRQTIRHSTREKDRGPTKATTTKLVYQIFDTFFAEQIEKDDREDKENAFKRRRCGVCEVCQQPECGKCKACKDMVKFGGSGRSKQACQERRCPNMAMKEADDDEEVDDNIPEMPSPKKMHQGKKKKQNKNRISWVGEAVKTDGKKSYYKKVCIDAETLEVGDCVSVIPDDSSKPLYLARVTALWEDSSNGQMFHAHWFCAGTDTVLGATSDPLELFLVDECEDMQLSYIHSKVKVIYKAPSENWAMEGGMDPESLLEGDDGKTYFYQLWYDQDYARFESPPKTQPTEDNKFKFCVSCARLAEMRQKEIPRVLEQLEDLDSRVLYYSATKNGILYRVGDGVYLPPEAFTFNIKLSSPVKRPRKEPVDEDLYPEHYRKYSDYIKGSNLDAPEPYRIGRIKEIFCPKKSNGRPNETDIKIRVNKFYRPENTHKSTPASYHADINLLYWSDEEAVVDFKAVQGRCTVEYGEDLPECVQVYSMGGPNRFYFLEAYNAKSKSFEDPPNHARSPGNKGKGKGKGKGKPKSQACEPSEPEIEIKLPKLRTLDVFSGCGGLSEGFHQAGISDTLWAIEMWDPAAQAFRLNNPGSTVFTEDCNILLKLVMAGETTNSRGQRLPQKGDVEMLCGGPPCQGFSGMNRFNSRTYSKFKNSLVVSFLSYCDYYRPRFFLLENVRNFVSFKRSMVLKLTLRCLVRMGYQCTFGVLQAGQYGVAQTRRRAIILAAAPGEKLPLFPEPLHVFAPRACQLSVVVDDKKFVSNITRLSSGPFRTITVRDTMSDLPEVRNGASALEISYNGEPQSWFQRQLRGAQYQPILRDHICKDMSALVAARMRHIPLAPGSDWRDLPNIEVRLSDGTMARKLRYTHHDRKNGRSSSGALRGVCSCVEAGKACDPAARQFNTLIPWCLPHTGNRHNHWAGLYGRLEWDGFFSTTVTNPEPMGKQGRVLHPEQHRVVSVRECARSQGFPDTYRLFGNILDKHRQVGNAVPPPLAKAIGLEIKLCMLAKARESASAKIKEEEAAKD
ASSAY_NAME: Electrophoretic gel mobility shift assays (EMSA/REMSA) and Kd determination with purified DNMT1
Type: binding
Design: purchased BPS Bioscience Inc
CONDITION_SET: EMSA, constant oligonucleotide concentration (1 nM) titrated with increasing DNMT1; nonlinear regression; read-out: dissociation constant (Kd)
[5mC] = 5-methylcytosine
Recorded pKd values for a group of substances are listed next.
Reminder that pKd is minus the log10 of a molar concentration.

The examples below pair each entry with its known result.
[[record]]
substance = "umDNA: unmethylated dsDNA probe (SEQ ID NOs:64, 71) (chain 1 CTGAGGCCTTGGCGAGGCTTCT; chain 2 AGAAGCCTCGCCAAGGCCTCAG; DNA, backbone not given here; listed as Homo sapiens)"
system = "DNMT1 (Homo sapiens, UniProt P26358)"
endpoint = "pKd"
numeric_readout = 7.09

[[record]]
substance = "hmDNA: hemimethylated dsDNA probe (SEQ ID NOs:65, 72) (chain 1 CTGAGGCCTTGGCGAGGCTTCT; chain 2 AGAAGCCTCGCCAAGGCCTCAG; chain 1: DNA, [5mC] at 13, backbone and methylation of C not given here; chain 2: DNA, backbone not given here; listed as Homo sapiens)"
system = "DNMT1 (Homo sapiens, UniProt P26358)"
endpoint = "pKd"
numeric_readout = 6.85

[[record]]
substance = "mDNA: methylated dsDNA probe (SEQ ID NOs:66, 73) (chain 1 CTGAGGCCTTGGCGAGGCTTCT; chain 2 AGAAGCCTCGCCAAGGCCTCAG; chain 1: DNA, [5mC] at 13, backbone not given here; chain 2: DNA, [5mC] at 9, backbone not given here; listed as Homo sapiens)"
system = "DNMT1 (Homo sapiens, UniProt P26358)"
endpoint = "pKd"
numeric_readout = 6.96


From here, focus on the item given below.
Data request: Return reported pKd. Input substance: RNA: folded ssRNA oligonucleotide of C/EBPa ecRNA, positions 4627-4648 of SEQ ID NO:8 (SEQ ID NO:62) (CUGAGGCCUUGGCGAGGCUUCU; chemistry not given here; listed as Homo sapiens)
Data returned: 7.35
